Numbers sourced from the supplement of paper PMC10307832.

test system: NCI-H3122; assay: relative viability (nuclei count vs DMSO), 5 days (fraction); higher = more cells survive; conditions: first compound 0.4 µM
Kindly apply the following: yes (1) if relative viability is less than 0.6, no (0) in every other case.

[[record]]
compound = "Cc1sc2c(c1C)C(c1ccc(Cl)cc1)=N[C@@H](CC(=O)OC(C)(C)C)c1nnc(C)n1-2 [JQ1] + CS(=O)(=O)N1CCN(Cc2cc3nc(-c4cccc5[nH]ncc45)nc(N4CCOCC4)c3s2)CC1 [Pictilisib] (partner 1 µM)"
assigned_label = "no (0)"

[[record]]
compound = "Cc1sc2c(c1C)C(c1ccc(Cl)cc1)=N[C@@H](CC(=O)OC(C)(C)C)c1nnc(C)n1-2 [JQ1] + Cc1nc(Nc2ncc(C(=O)Nc3c(C)cccc3Cl)s2)cc(N2CCN(CCO)CC2)n1 [Dasatinib] (partner 0.075 µM)"
assigned_label = "yes (1)"

[[record]]
compound = "Cc1sc2c(c1C)C(c1ccc(Cl)cc1)=N[C@@H](CC(=O)OC(C)(C)C)c1nnc(C)n1-2 [JQ1] + CS(=O)(=O)CCNCc1ccc(-c2ccc3ncnc(Nc4ccc(OCc5cccc(F)c5)c(Cl)c4)c3c2)o1 [Lapatinib] (partner 2 µM)"
assigned_label = "no (0)"

[[record]]
compound = "Cc1sc2c(c1C)C(c1ccc(Cl)cc1)=N[C@@H](CC(=O)OC(C)(C)C)c1nnc(C)n1-2 [JQ1] + N=C(N)NC(=N)NCCc1ccccc1 [Phenformin] (partner 250 µM)"
assigned_label = "yes (1)"

[[record]]
compound = "Cc1sc2c(c1C)C(c1ccc(Cl)cc1)=N[C@@H](CC(=O)OC(C)(C)C)c1nnc(C)n1-2 [JQ1] + CC(=O)c1c(C)c2cnc(Nc3ccc(N4CCNCC4)cn3)nc2n(C2CCCC2)c1=O [Palbociclib] (partner 0.5 µM)"
assigned_label = "yes (1)"


Q. For this compound, is relative viability lower than 0.6? Cc1sc2c(c1C)C(c1ccc(Cl)cc1)=N[C@@H](CC(=O)OC(C)(C)C)c1nnc(C)n1-2 [JQ1] + Nc1nc2[nH]cc(CCc3ccc(C(=O)N[C@@H](CCC(=O)O)C(=O)O)cc3)c2c(=O)[nH]1 [Pemetrexed] (partner 0.2 µM)
A. yes (1)

====

The entries below come with measured relative viability values attached.
test system: BEN; experiment: relative viability (nuclei count vs DMSO), 5 days (fraction); higher = more cells survive; details: first compound 500 µM

[[record]]
compound = "O=C(O)CCCCC(CCSCc1ccccc1)SCc1ccccc1 (stereo not drawn) [CPI-613] + COc1cc2c(Oc3ccc(NC(=O)C4(C(=O)Nc5ccc(F)cc5)CC4)cc3F)ccnc2cc1OCCCN1CCOCC1 [Foretinib] (partner 0.25 µM)"
result = 0.508

[[record]]
compound = "O=C(O)CCCCC(CCSCc1ccccc1)SCc1ccccc1 (stereo not drawn) [CPI-613] + Cc1cc(Nc2cc(N3CCN(C)CC3)nc(Sc3ccc(NC(=O)C4CC4)cc3)n2)n[nH]1 [Tozasertib] (partner 0.1 µM)"
result = 0.408


Let's switch to this compound now.
Q. Query relative viability for O=C(O)CCCCC(CCSCc1ccccc1)SCc1ccccc1 (stereo not drawn) [CPI-613] + O=C(CCCCCCC(=O)Nc1ccccc1)NO [Vorinostat] (partner 1 µM)
A. 0.607

====

Parameter relative viability: see the listing below.
system: RERF-LC-KJ; assay: relative viability (nuclei count vs DMSO), 5 days (fraction); higher = more cells survive; conditions: first compound 158.11 µM
Answer with the value's number alone.

Q. Determine from records and report relative viability for O=C(O)CCCCC(CCSCc1ccccc1)SCc1ccccc1 (configuration not stated) [CPI-613] + C[C@@H](Oc1cc(-c2cnn(C3CCNCC3)c2)cnc1N)c1c(Cl)ccc(F)c1Cl [Crizotinib] (partner 1 µM)
A. 0.876

Q. Tell me measured relative viability for O=C(O)CCCCC(CCSCc1ccccc1)SCc1ccccc1 (configuration not stated) [CPI-613] + CC(C)C[C@H](NC(=O)[C@H](Cc1ccccc1)NC(=O)c1cnccn1)B(O)O [Bortezomib] (partner 0.002 µM) please.
A. 1.07

Q. Quote relative viability reported for O=C(O)CCCCC(CCSCc1ccccc1)SCc1ccccc1 (configuration not stated) [CPI-613] + Cc1cc(Nc2cc(N3CCN(C)CC3)nc(Sc3ccc(NC(=O)C4CC4)cc3)n2)n[nH]1 [Tozasertib] (partner 0.1 µM) please.
A. 0.188

Q. # return recorded relative viability for input O=C(O)CCCCC(CCSCc1ccccc1)SCc1ccccc1 (configuration not stated) [CPI-613] + CC(=O)c1c(C)c2cnc(Nc3ccc(N4CCNCC4)cn3)nc2n(C2CCCC2)c1=O [Palbociclib] (partner 0.5 µM)
A. 0.615

Q. Note relative viability for the compound shown: O=C(O)CCCCC(CCSCc1ccccc1)SCc1ccccc1 (configuration not stated) [CPI-613] + CS(=O)(=O)N1CCN(Cc2cc3nc(-c4cccc5[nH]ncc45)nc(N4CCOCC4)c3s2)CC1 [Pictilisib] (partner 1 µM)
A. 0.558

Q. Recall and state the measured relative viability for O=C(O)CCCCC(CCSCc1ccccc1)SCc1ccccc1 (configuration not stated) [CPI-613] + C[C@]1(O)C[C@@H](c2nc(-c3ccc4ccc(-c5ccccc5)nc4c3)c3c(N)nccn32)C1 [Linsitinib] (partner 1 µM) .
A. 0.87

Q. Give reported relative viability value for O=C(O)CCCCC(CCSCc1ccccc1)SCc1ccccc1 (configuration not stated) [CPI-613] + NC(=O)Nc1cc(-c2cccc(F)c2)sc1C(=O)N[C@H]1CCCNC1 [AZD7762] (partner 0.2 µM)
A. 0.94

====

system: SK-MES-1; assay: relative viability (nuclei count vs DMSO), 5 days (fraction); higher = more cells survive; details: first compound 0.002 µM
Here the recorded relative viability is given for each entry.
Could you keep your reply to the number by itself?

Q. Given the compound CC(=O)O[C@@]12CO[C@@H]1C[C@H](O)[C@@]1(C)C(=O)[C@H](O)C3=C(C)[C@@H](OC(=O)[C@H](O)[C@@H](NC(=O)OC(C)(C)C)c4ccccc4)C[C@@](O)([C@@H](OC(=O)c4ccccc4)[C@H]21)C3(C)C [Docetaxel] + C[C@]1(O)C[C@@H](c2nc(-c3ccc4ccc(-c5ccccc5)nc4c3)c3c(N)nccn32)C1 [Linsitinib] (partner 1 µM) , write its reported relative viability.
A. 0.634

Q. Identify measured relative viability associated with CC(=O)O[C@@]12CO[C@@H]1C[C@H](O)[C@@]1(C)C(=O)[C@H](O)C3=C(C)[C@@H](OC(=O)[C@H](O)[C@@H](NC(=O)OC(C)(C)C)c4ccccc4)C[C@@](O)([C@@H](OC(=O)c4ccccc4)[C@H]21)C3(C)C [Docetaxel] + O=C(CCCCCCC(=O)Nc1ccccc1)NO [Vorinostat] (partner 1 µM)
A. 0.695

Q. Complete the entry with relative viability for CC(=O)O[C@@]12CO[C@@H]1C[C@H](O)[C@@]1(C)C(=O)[C@H](O)C3=C(C)[C@@H](OC(=O)[C@H](O)[C@@H](NC(=O)OC(C)(C)C)c4ccccc4)C[C@@](O)([C@@H](OC(=O)c4ccccc4)[C@H]21)C3(C)C [Docetaxel] + Nc1ncn([C@H]2C[C@H](O)[C@@H](CO)O2)c(=O)n1 [Decitabine] (partner 2 µM)
A. 0.347

Q. Quickly give me recorded relative viability for CC(=O)O[C@@]12CO[C@@H]1C[C@H](O)[C@@]1(C)C(=O)[C@H](O)C3=C(C)[C@@H](OC(=O)[C@H](O)[C@@H](NC(=O)OC(C)(C)C)c4ccccc4)C[C@@](O)([C@@H](OC(=O)c4ccccc4)[C@H]21)C3(C)C [Docetaxel] + COc1cc2c(Oc3ccc(NC(=O)C4(C(=O)Nc5ccc(F)cc5)CC4)cc3F)ccnc2cc1OCCCN1CCOCC1 [Foretinib] (partner 0.25 µM)
A. 0.508

====

Entries annotated with measured relative viability
test system: LXF-289; assay: relative viability (nuclei count vs DMSO), 5 days (fraction); higher = more cells survive; details: first compound 0.05 µM
Lab note: jot down the number only; don't add units.

[[record]]
molecule = "COc1cc2nccc(Oc3ccc(NC(=O)Nc4cc(C)on4)c(Cl)c3)c2cc1OC [Tivozanib] + O=C(c1cc(Cc2n[nH]c(=O)c3ccccc23)ccc1F)N1CCN(C(=O)C2CC2)CC1 [Olaparib] (partner 8 µM)"
observation_type = "relative viability"
numeric_value = 1.09


Q. Answer with reported relative viability of Nc1ccn([C@@H]2O[C@H](CO)[C@@H](O)[C@@H]2O)c(=O)n1 [Cytarabine] + COc1cc2c(Oc3ccc(NC(=O)C4(C(=O)Nc5ccc(F)cc5)CC4)cc3F)ccnc2cc1OCCCN1CCOCC1 [Foretinib] (partner 0.25 µM)
A. 0.749

====

tested on: NCI-H322M; assay: relative viability (nuclei count vs DMSO), 5 days (fraction); higher = more cells survive; details: first compound 1.265 µM
Let's look at some compounds and their measured relative viability.
Output: the number by itself.

[[record]]
compound = "Cc1sc2c(c1C)C(c1ccc(Cl)cc1)=N[C@@H](CC(=O)OC(C)(C)C)c1nnc(C)n1-2 [JQ1] + Nc1ncn([C@H]2C[C@H](O)[C@@H](CO)O2)c(=O)n1 [Decitabine] (partner 2 µM)"
observation_type = "relative viability"
numeric_value = 0.594

[[record]]
compound = "Cc1sc2c(c1C)C(c1ccc(Cl)cc1)=N[C@@H](CC(=O)OC(C)(C)C)c1nnc(C)n1-2 [JQ1] + Cc1nc(Nc2ncc(C(=O)Nc3c(C)cccc3Cl)s2)cc(N2CCN(CCO)CC2)n1 [Dasatinib] (partner 0.075 µM)"
observation_type = "relative viability"
numeric_value = 0.225

[[record]]
compound = "Cc1sc2c(c1C)C(c1ccc(Cl)cc1)=N[C@@H](CC(=O)OC(C)(C)C)c1nnc(C)n1-2 [JQ1] + Cc1nc(NC(=O)N2CCC[C@H]2C(N)=O)sc1-c1ccnc(C(C)(C)C(F)(F)F)c1 [Alpelisib] (partner 2 µM)"
observation_type = "relative viability"
numeric_value = 0.68


# next compound below
Q. Give reported relative viability value for Cc1sc2c(c1C)C(c1ccc(Cl)cc1)=N[C@@H](CC(=O)OC(C)(C)C)c1nnc(C)n1-2 [JQ1] + COc1cc2c(Oc3ccc(NC(=O)C4(C(=O)Nc5ccc(F)cc5)CC4)cc3F)ccnc2cc1OCCCN1CCOCC1 [Foretinib] (partner 0.25 µM)
A. 0.513
